Test system: OVCAR-3 ovarian
Test: NCI-60 one-dose screen, 48 h (100 = growth as untreated, 0 = no growth, -100 = all killed)
Settings: 10 µM unless noted
This is part of a sample that, as a whole, favours compounds with a hit. Of some 83,000 tested, about 20% had one in any assay.
PROPERTY_NAME: growth (%)

>>> df
                                    compound  target_or_system  property_name  recorded_number
 0  O=C(CSc1nnc(-c2ccc(Cl)c(Cl)c2)n1-c1ccccc1)Nc1ccc(C(=O)/C=C/c2ccc(Cl)cc2)cc1   OVCAR-3 ovarian         growth             95.5
 1     Cc1ccccc1NC(=O)c1sc2nc3c(cc2c1N)CCCC3   OVCAR-3 ovarian         growth             11.3
 2  C=C(C)[C@@H]1CC[C@]2(COCCCNCCCN)CC[C@]3(C)[C@H](CC[C@@H]4[C@@]5(C)CC[C@H](OCCCN)C(C)(C)[C@@H]5CC[C@]43C)[C@@H]12   OVCAR-3 ovarian         growth             47.8
 3  COc1ccc(NC(=O)c2ccc(NC3=C(c4ccc(Cl)cc4)C(=O)NC3=O)cc2)cc1   OVCAR-3 ovarian         growth             89.2
 4  N#C/C(=N\Nc1ccccc1)C(=O)Nc1cc(-c2ccccc2)nn1-c1ccccc1   OVCAR-3 ovarian         growth             12.4
 5      COC(=O)c1nc(-c2ccc(C)cc2)oc1N1CCOCC1   OVCAR-3 ovarian         growth              107
 6  Oc1cccc(-c2nc(-c3n[nH]c(=S)n3-c3ccccc3)cc3c2[nH]c2ccccc23)c1   OVCAR-3 ovarian         growth             3.83
 7  Cc1ccc(C23CCC(=O)N2CCc2cncn23)cc1 (centres undefined)   OVCAR-3 ovarian         growth              113
 8  CN(C)c1ccc(Cc2cc(-c3ccccc3)nn(C/C(=N/O)c3ccccc3)c2=O)cc1   OVCAR-3 ovarian         growth             56.2
 9  CCCC[N+]1(C)CCN=C1Cc1ccccc1 (centres undefined)   OVCAR-3 ovarian         growth              103
10  C=C(C)[C@@H]1CC[C@]2(C(=O)NC(C)=O)CC[C@]3(C)[C@H](CC[C@@H]4[C@@]5(C)CCCNC(C)(C)[C@@H]5CC[C@]43C)[C@@H]12   OVCAR-3 ovarian         growth            -34.3
11  O=C(/C=C/c1ccc([N+](=O)[O-])cc1)c1cccc(Nc2nc(Nc3ccccc3)nc(Nc3ccccc3)n2)c1   OVCAR-3 ovarian         growth             72.6
12  C=CC(=O)NCc1cccc(Nc2ncc(Br)c(NCCCNC(=O)C3CCC3)n2)c1   OVCAR-3 ovarian         growth            -33.4
13  COc1cc2nc3cc([N+](=O)[O-])ccc3c(NCCCNCCO)c2cc1OC   OVCAR-3 ovarian         growth            -44.6
14  CN1CCN(Cc2ccc(NC(=O)c3cncc(C#Cc4cnc(N)c5ncccc45)c3)cc2Cl)CC1   OVCAR-3 ovarian         growth              116
15  c1ccc2c(-c3cnn4cc(-c5ccc(N6CCNCC6)cc5)cnc34)ccnc2c1   OVCAR-3 ovarian         growth            -83.2
16  O=C(NS(=O)(=O)c1ccccc1)n1cc(-c2ccncc2)c(-c2cc(O)cc(Cl)c2)n1   OVCAR-3 ovarian         growth              108
17                  O=c1ccc2c(ccc3ncccc32)o1   OVCAR-3 ovarian         growth              108
18  CCN(CC)CCCC(Nc1c2ccc(Cl)cc2nc2ccc(OC)cc12)c1ccncc1 (centres undefined)   OVCAR-3 ovarian         growth             95.6

====

Item-by-item account of growth
Test system: IGROV1 ovarian
Test: NCI-60 one-dose screen, 48 h (100 = growth as untreated, 0 = no growth, -100 = all killed)
Details: 10 µM unless noted
The panel holds about 83,000 compounds, 20% with a hit somewhere; the sample as a whole holds those more often.

COMPOUND	MEASURE_UNIT	growth
COc1cc(OC)cc(C(=O)Nc2cnc(Nc3ccc(N4CCOCC4)nc3)nc2Oc2ccc(C(F)(F)F)cc2)c1	%	77.4
CCCC[N+]1(C)CCN=C1Cc1ccccc1 (centres undefined)	%	106
COCCNC(=O)Cc1cc(-c2ccc(Cl)cc2)n(-c2ccccc2)c1C	%	88.6
CCOC(=O)/C=C1\S/C(=N\Nc2cc(=O)[nH]c3ccc(OC)cc23)N(c2ccccc2)C1=O	%	92.2
COc1ccc(-c2ccc(-c3ccc(C(=N)N)nc3)s2)cc1	%	-84.3
Brc1ccc(-c2nn(-c3ccccc3)cc2-c2nn[nH]n2)s1	%	102
COc1ccc(NC(=O)CSc2oc(-c3ccccc3)nc2S(=O)(=O)c2ccc(Cl)cc2)c(OC)c1	%	93.5
C#Cc1ccc(NC(=O)Cc2ccc(/C=C/C(=O)c3nccn3C)cc2)cc1	%	52.8
O=C(c1ccccc1)[C@@H](c1ccccc1)[C@]1(O)C(=O)Nc2ccccc21	%	98.4
O=C(Nc1ccc(Oc2cccc(F)c2)c(Cl)c1)c1cnccn1	%	40.5
COc1cccc2cc(N(C)c3nc(C)nc4c3CCC4)ccc12	%	24.2
O=C(NC1CCCCCC1)c1ccc2c(=O)n3c(nc2c1)CCCCC3	%	94.2
COc1cccc(C(=O)Nc2cccc(NC(=O)c3ccccn3)c2)c1	%	101
COc1cccc(-c2cc(-c3ccc(Nc4nc(Nc5ccc(Cl)cc5)nc(Nc5ccc(Cl)cc5)n4)cc3)nc(N)c2C#N)c1	%	10.1
CCOC(=O)C#Cc1c(CC(=O)OCC)nnn1[C@H]1O[C@@H](CO)[C@@H]2OC(C)(C)O[C@@H]21	%	98.3
O=C(c1ccc(F)cc1)C1CCN(CCn2c(=O)[nH]c3ccccc3c2=O)CC1	%	111
O=C(Cn1cc(CSc2nc3ccccc3o2)nn1)Nc1ccc([N+](=O)[O-])cc1	%	91.6
CCC(C)C(N)C(=O)NC(CC(C)C)C(=O)N1CCCC1C(=O)NC(Cc1c[nH]c2ccccc12)C(=O)NC(CCCCN)C(=O)NC(Cc1c[nH]c2ccccc12)C(=O)N1CCCC1C(=O)NC(Cc1c[nH]c2ccccc12)C(=O)NC(Cc1c[nH]c2ccccc12)C(=O)N1CCCC1C(=O)NC(Cc1c[nH]c2ccccc12)C(=O)NC(CCCNC(=N)N)C(=O)NC(CCCNC(=N)N)C(N)=O (centres undefined)	%	58.4
O=C1CCC(C(=O)N/N=C/c2ccc([N+](=O)[O-])cc2)N1 (centres undefined)	%	100

====

Test system: DU-145 prostate
Experiment: NCI-60 one-dose screen, 48 h (100 = growth as untreated, 0 = no growth, -100 = all killed)
Conditions: 10 µM unless noted
The panel holds about 83,000 compounds, 20% with a hit somewhere; the sample as a whole holds those more often.
In this section, each of the compounds is paired with its reported growth.

COMPOUND	MEASURE_UNIT	growth
CC1(C)CCC[C@]23C(=O)O[C@](O)(C(=O)C4=C[C@@](C)(/C=C/CCCc5ccc6ccc7cccc8ccc5c6c78)CC[C@@]42O)[C@@H]13	%	-85.7
COc1ccc(-c2cc(-c3ccc(Cl)cc3)c(C#N)c(=O)n2CCCCC(=O)NO)cc1	%	78.2
Cc1nc2ccccc2c(/C=C/c2ccc(Cl)cc2)c1C(=O)/C=C/c1ccccc1	%	9.75
O=[N+]([O-])c1ccc(Oc2cccc3c(Oc4ccc([N+](=O)[O-])cc4[N+](=O)[O-])cccc23)c([N+](=O)[O-])c1	%	107
CC(=O)O[C@H]1C[C@@]2(C)[C@@H](C[C@@H](O)[C@H]3[C@@]4(C)CC[C@H](N5CCCC5)[C@@H](C)[C@@H]4CC[C@@]32C)/C1=C(\CCC=C(C)C)C(=O)O	%	105
CC(=O)O[C@H]1CC[C@@]2(C)C(=CC[C@@H]3[C@@H]2CC[C@]2(C)C(Cl)=C(c4nc5ccc(Cl)cn5c4NC(C)(C)C)C[C@@H]32)C1	%	95.8
NCCCCCNc1noc(Cc2c[nH]c3cc(Br)ccc23)n1	%	2.36
Cc1ccc(-c2nc(C#N)c(S(=O)(=O)n3nc(C)cc3N)o2)cc1	%	108
C=CCOC(=O)C1=C(C)N(CC)C(=O)N(CC)C1c1c(Cl)n(C)c2ccccc12 (stereo unspecified)	%	99.4
CN(C)c1ccc(/C=N/NC(=O)CSc2nc3sc4c(c3c(=O)n2-c2ccccc2)CCCCC4)cc1	%	14.9
O=[N+]([O-])c1ccc(N/N=C\c2cc(Cl)ccc2O)nc1	%	39.4
COc1ccc(C(=O)/C=C/Nc2cc(-c3ccccc3)nn2-c2ccccc2)cc1	%	99.7
CC(C)n1cc(C2=C(c3cccc4ccccc34)C(=O)NC2=O)c2cc(Br)ccc21	%	71
O=C(/C=C/c1ccco1)c1ccc(Nc2ccnc3cc(Cl)ccc23)cc1	%	90.8
[2H]C([2H])([2H])Oc1ccc(/C=C/C(=O)/C=C(/C=C/c2ccc(OC([2H])([2H])[2H])c(OC([2H])([2H])[2H])c2OC([2H])([2H])[2H])OB(F)F)c(OC([2H])([2H])[2H])c1OC([2H])([2H])[2H]	%	68.8
C=C1/C(=C\C=C2/CCC[C@]3(C)[C@@H]([C@H](C)CCCC(C)(C)O)CC[C@@H]23)C[C@@H](OC(=O)CBr)C[C@@H]1O	%	92.7
